- Test system: ATP;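 note: ATP exposure 15 min at 22 °C before imaging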
- assay notes: switch fluorescence ratio, 500 uM ATP over buffer (Cy3 cluster intensity, sum of 5 cycles each) (fold (ratio)); higher = stronger signal-on switching upon ATP binding; sequences stand for … in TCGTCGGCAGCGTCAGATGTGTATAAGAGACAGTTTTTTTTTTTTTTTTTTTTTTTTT…TC
- experimental conditions: aptamer strand: ATP DNA aptamer (quencher-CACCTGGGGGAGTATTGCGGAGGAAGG + anchor), 100 nM annealed; ATP concentration: 500 uM
Classification field: fulfilled = switch fluorescence ratio at or over 1; not fulfilled = switch fluorescence ratio under 1.

residue sequence	class label
TACGCGGGCA	fulfilled
CCTGGGTGTG	fulfilled
TAGGGAAGAT	fulfilled
GTATGTTGCG	not fulfilled
TTAGTGGAAT	not fulfilled

Query: Would you say TGGGGACTGG shows switch fluorescence ratio at minimum 1?
Result: fulfilled

Query: Would you say GCTCACACGG shows switch fluorescence ratio at minimum 1?
Result: fulfilled

----------
- Tested on: ATP;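 note: ATP exposure 15 min at 22 °C before imaging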
- assay notes: switch fluorescence ratio, 500 uM ATP over buffer (Cy3 cluster intensity, sum of 5 cycles each) (fold (ratio)); higher = stronger signal-on switching upon ATP binding; sequences stand for … in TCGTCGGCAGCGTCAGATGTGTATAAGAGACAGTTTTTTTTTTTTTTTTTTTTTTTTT…TC
- experimental conditions: aptamer strand: ATP DNA aptamer (quencher-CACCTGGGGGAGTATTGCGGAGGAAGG + anchor), 100 nM annealed; ATP concentration: 500 uM
Kindly state switch fluorescence ratio for each of the entries shown.
One number for each entry.

Recorded switch fluorescence ratio, per entry:
residue sequence	quantity kind	value
TGGAGGAGAG	switch fluorescence ratio	0.99
TTGGATTCGG	switch fluorescence ratio	0.972
TAATAGACGG	switch fluorescence ratio	1
CATCGATTGC	switch fluorescence ratio	1.03
GTTTTCAGCG	switch fluorescence ratio	1.01

Batch: switch fluorescence ratio for all items listed.
1. TGGGAGTCGG
2. TCAAATAGCG
3. TTAATTATGA
4. GTGTGAGTTG

Result:
[1.01, 1.03, 0.991, 0.961]

----------
- Test system: ATP;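 note: ATP exposure 15 min at 22 °C before imaging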
- assay notes: switch fluorescence ratio, 500 uM ATP over buffer (Cy3 cluster intensity, sum of 5 cycles each) (fold (ratio)); higher = stronger signal-on switching upon ATP binding; sequences stand for … in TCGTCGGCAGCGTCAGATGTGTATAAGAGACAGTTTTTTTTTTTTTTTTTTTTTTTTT…TC
- experimental conditions: aptamer strand: ATP DNA aptamer (quencher-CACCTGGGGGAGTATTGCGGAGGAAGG + anchor), 100 nM annealed; ATP concentration: 500 uM
quantity kind: switch fluorescence ratio
Answers are plain numbers.

Recorded switch fluorescence ratio, per entry:
residue sequence	value
GGGGGAATTG	1.02
TTTGAACTTT	0.991
AGGAGAGCTT	1.02

Batch: switch fluorescence ratio for all items listed.
1. TTTGCGG
2. AACATGGTGC
3. TTGGGATGGG
4. TTTATCATGC
5. ATCGCGGGTT
6. AGTAAGGGCT

Result:
1.01
1.01
0.998
0.987
0.99
0.99

----------
- Test system: ATP;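 note: ATP exposure 15 min at 22 °C before imaging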
- assay notes: switch fluorescence ratio, 500 uM ATP over buffer (Cy3 cluster intensity, sum of 5 cycles each) (fold (ratio)); higher = stronger signal-on switching upon ATP binding; sequences stand for … in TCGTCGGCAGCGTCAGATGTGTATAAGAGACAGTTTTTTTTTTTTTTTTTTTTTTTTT…TC
- experimental conditions: aptamer strand: ATP DNA aptamer (quencher-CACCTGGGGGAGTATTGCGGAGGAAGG + anchor), 100 nM annealed; ATP concentration: 500 uM
quantity kind: switch fluorescence ratio
Give bare numbers.

Recorded switch fluorescence ratio, per entry:
residue sequence	quantity kind	value
CGGTGGTTGT	switch fluorescence ratio	0.995
AAGAAATCGG	switch fluorescence ratio	1.01
CCGGATCGGC	switch fluorescence ratio	1.04
TTTTCCAAAG	switch fluorescence ratio	1.01
GAGTTTCAGA	switch fluorescence ratio	1.03

Batch: switch fluorescence ratio for all items listed.
1. CAAGCTTTTT
2. GGTGGGGTTA

Result:
[0.979, 0.984]
